Attribution: ChEMBL document CHEMBL1201862

- Test system: NCI-H460
- experiment_description: NCI tumour cell line growth inhibition, 48 h
Activity calls are given as the source filed them. Cut-off read from the data, not from the text of the source: active = GI50 up to about 1.1 µM and inactive = higher.
Returns: one label drawn from 1.0 for active, 0.0 for inactive

>  <compound>
Cc1ccc(S(=O)(=O)OI(O)CC(F)(F)F)cc1

>  <target_or_test_system>
NCI-H460

>  <class_label>
0.0

$$$$
>  <compound>
[N-]=[N+]=Nc1cc(=O)n(-c2ccccc2)c2ccccc12

>  <target_or_test_system>
NCI-H460

>  <class_label>
0.0

$$$$
>  <compound>
CC1=C(/C=C/C(C)=C/C=C/C(C)=C/C(=O)OCC2OC(n3cc(F)c(=O)[nH]c3=O)CC2OC(=O)/C=C(C)/C=C/C=C(C)/C=C/C2=C(C)CCCC2(C)C)C(C)(C)CCC1 (stereo not given)

>  <target_or_test_system>
NCI-H460

>  <class_label>
1.0

$$$$

Field: outcome | Entry: CC(=O)Oc1ccc2cc(Oc3cc(Cl)c(Cl)cc3Cl)c(=O)oc2c1
0.0

Field: outcome | Entry: CC(=O)/C=C/CCC(=O)/C=C/C(=O)OC(CCC(=O)/C=C/C(=O)O)CC(C)=O (stereo not given)
0.0
